Dear all, I have gathered published Ki values for UniProt Q14832; the list follows.
Sequence (Q14832 whole entry): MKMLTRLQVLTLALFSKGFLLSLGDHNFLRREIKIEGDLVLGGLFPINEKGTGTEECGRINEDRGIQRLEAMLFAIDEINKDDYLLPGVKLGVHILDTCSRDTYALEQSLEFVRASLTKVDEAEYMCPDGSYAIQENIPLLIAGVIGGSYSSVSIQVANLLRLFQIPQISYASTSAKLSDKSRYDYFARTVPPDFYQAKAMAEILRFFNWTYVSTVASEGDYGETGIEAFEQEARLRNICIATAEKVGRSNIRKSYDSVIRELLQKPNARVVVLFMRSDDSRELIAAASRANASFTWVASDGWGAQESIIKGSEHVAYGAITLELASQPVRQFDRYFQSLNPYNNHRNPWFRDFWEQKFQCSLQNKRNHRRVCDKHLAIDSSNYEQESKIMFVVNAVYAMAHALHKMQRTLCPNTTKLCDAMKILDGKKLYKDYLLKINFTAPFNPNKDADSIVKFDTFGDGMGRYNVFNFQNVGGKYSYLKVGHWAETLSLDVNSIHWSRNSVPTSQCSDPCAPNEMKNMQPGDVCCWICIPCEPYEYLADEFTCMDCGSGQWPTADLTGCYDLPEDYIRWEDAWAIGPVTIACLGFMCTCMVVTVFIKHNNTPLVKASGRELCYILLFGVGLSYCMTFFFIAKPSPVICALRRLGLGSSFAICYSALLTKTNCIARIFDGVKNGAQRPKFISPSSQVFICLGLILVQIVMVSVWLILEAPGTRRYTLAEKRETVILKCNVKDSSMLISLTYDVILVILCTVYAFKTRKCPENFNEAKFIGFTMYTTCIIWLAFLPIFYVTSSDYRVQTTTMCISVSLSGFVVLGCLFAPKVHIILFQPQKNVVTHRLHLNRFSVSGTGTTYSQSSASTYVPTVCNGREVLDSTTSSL
Note to self: use Yes only for Ki readings below 5 nM; a reading exactly at 5 nM still gets No.

[
  {
    "Smiles notation": "N[C@@]1(C(=O)O)C[C@H](NC(=O)c2ccccc2Cl)[C@H]2[C@H](C(=O)O)[C@H]21",
    "Label value": "No"
  },
  {
    "Smiles notation": "N[C@@]1(C(=O)O)C[C@H](NC(=O)c2ccc(O)cc2)[C@H]2[C@H](C(=O)O)[C@H]21",
    "Label value": "No"
  },
  {
    "Smiles notation": "N[C@]1(C(=O)O)[C@H]2[C@@H](C[C@H]1OCc1ccc(Cl)c(Cl)c1)[C@]2(F)C(=O)O",
    "Label value": "Yes"
  },
  {
    "Smiles notation": "N[C@@]1(C(=O)O)C[C@H](NC(=O)c2cccc(O)c2)[C@H]2[C@H](C(=O)O)[C@H]21",
    "Label value": "Yes"
  },
  {
    "Smiles notation": "COc1ccccc1C(=O)N[C@H]1C[C@@](N)(C(=O)O)[C@@H]2[C@@H](C(=O)O)[C@@H]21",
    "Label value": "No"
  },
  {
    "Smiles notation": "N[C@@]1(C(=O)O)C[C@H](NC(=O)c2ccc(Cl)cc2)[C@H]2[C@H](C(=O)O)[C@H]21",
    "Label value": "Yes"
  },
  {
    "Smiles notation": "N[C@@]1(C(=O)O)C[C@H](NC(=O)C2CCCCC2)[C@H]2[C@H](C(=O)O)[C@H]21",
    "Label value": "No"
  },
  {
    "Smiles notation": "N[C@@H](CCC(=O)O)C(=O)O",
    "Label value": "No"
  },
  {
    "Smiles notation": "N[C@]1(C(=O)O)[C@@H]2[C@@H](C(=O)O)[C@@H]2[C@H](Sc2nc[nH]n2)[C@H]1OCc1ccc(Cl)c(Cl)c1",
    "Label value": "Yes"
  },
  {
    "Smiles notation": "N[C@@]1(C(=O)O)C[C@H](NC(=O)c2ccccc2O)[C@H]2[C@H](C(=O)O)[C@H]21",
    "Label value": "Yes"
  },
  {
    "Smiles notation": "COc1ccc(C(=O)N[C@H]2C[C@@](N)(C(=O)O)[C@@H]3[C@@H](C(=O)O)[C@@H]32)cc1",
    "Label value": "Yes"
  },
  {
    "Smiles notation": "N[C@@]1(C(=O)O)C[C@H](NC(=O)c2cccc(F)c2)[C@H]2[C@H](C(=O)O)[C@H]21",
    "Label value": "Yes"
  }
]
